Biological target: UniProt P16581
Sequence (P16581 whole entry): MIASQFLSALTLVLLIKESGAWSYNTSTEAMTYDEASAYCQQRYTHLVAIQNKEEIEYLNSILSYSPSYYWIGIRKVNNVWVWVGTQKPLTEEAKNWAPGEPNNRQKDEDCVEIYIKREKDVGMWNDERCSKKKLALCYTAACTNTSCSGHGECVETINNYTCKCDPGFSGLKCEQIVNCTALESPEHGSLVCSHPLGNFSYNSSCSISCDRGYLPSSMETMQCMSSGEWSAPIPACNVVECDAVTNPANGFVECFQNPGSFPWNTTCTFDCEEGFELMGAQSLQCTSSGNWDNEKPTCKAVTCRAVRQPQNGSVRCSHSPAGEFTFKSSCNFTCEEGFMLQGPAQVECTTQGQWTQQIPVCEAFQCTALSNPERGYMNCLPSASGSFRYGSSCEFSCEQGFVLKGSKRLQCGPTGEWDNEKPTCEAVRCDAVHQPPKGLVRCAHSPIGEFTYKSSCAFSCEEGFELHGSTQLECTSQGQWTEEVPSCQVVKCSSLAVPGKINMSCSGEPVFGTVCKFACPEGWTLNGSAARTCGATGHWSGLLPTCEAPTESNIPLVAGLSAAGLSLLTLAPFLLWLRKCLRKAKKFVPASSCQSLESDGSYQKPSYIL
Test: In vitro inhibitory activity against Selectin E binding to human recombinant AGP (alpha-1 acid glycoprotein)
pIC50: −log10 of the molar value.
Parameter Measured: pIC50

Examples with answers:
O=C(O)CC[C@@H](NC(=O)CC1OC(CO)C(O)C(O)C1O)C(=O)O (stereo partly specified) = 2.15
NC(=O)[C@H](Cc1ccccc1)NCC1OC(CC(=O)N[C@@H](CCC(=O)O)C(=O)O)C(O)C(O)C1O (stereo partly specified) = 2.17
O=C(O)CC[C@H](NC(=O)CC1OC(CO)C(O)C(O)C1O)C(=O)O (stereo partly specified) = 2.52
NCCCC[C@@H](NC(=O)CC1OC(CO)C(O)C(O)C1O)C(=O)O (stereo partly specified) = 2.15
CC1CCCC(N(C)CC2OC(CC(=O)N[C@@H](CCC(=O)O)C(=O)O)C(O)C(O)C2O)C1 (stereo partly specified) = 2.10

a: O=C(O)CC[C@H](NC(=O)CC1OC(CNc2cc(C(=O)O)cc(C(=O)O)c2)C(O)C(O)C1O)C(=O)O (stereo partly specified)
b: O=C(O)CCc1ccc(NC(=O)CC2OC(CO)C(O)C(O)C2O)cc1 (stereo unspecified)
c: O=C(O)CC[C@H](NC(=O)CC1OC(CN2CCC(O)(Cc3ccccc3)CC2)C(O)C(O)C1O)C(=O)O (stereo partly specified)
**Query** Please rank these compounds by pIC50 in descending order. Labels, ranked as asked.
**Result** c, a, b
(c: 2.80, a: 2.22, b: 2.00)

###

Catalogue of pIC50 readings, one per entry.
Biological target: E-selectin (Homo sapiens, UniProt P16581)
Sequence (P16581 whole entry): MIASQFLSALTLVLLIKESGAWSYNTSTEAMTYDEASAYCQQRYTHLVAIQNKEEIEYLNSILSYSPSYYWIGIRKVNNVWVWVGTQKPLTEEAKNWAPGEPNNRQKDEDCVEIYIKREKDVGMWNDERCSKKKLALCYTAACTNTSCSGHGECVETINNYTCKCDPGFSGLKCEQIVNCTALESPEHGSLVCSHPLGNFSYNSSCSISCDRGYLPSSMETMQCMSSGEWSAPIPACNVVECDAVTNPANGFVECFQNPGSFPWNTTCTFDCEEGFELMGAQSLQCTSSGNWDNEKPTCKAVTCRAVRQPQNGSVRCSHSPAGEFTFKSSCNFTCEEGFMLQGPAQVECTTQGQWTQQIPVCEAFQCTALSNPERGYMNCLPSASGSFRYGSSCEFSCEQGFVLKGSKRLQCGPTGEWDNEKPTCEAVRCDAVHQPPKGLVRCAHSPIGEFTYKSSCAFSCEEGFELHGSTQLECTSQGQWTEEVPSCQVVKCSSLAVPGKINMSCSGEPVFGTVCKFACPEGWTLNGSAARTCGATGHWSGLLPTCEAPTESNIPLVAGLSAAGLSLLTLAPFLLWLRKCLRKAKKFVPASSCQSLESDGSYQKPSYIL
Assay: In vitro inhibitory activity against Selectin E binding to human recombinant AGP (alpha-1 acid glycoprotein)
pIC50: −log10 of the molar value.

Example results:
O=C(O)CCCc1ccc(NC(=O)CC2OC(CO)C(O)C(O)C2O)cc1 (stereo not drawn) = < 2.00
O=C(O)C[C@@H](NC(=O)CC1OC(CO)C(O)C(O)C1O)C(=O)O (stereo partly drawn) = 2.22

Continue with the molecule presented below.
**Query** What measured pIC50 is associated with NC(=O)CC[C@@H](NC(=O)CC1OC(CO)C(O)C(O)C1O)C(=O)O (stereo partly drawn) on E-selectin (Homo sapiens, UniProt P16581)?
**Result** < 2.00
